Sourced from ChEMBL document CHEMBL1123137

Overview of recorded k' for various molecules
# assay.remarks: HPLC capacity factor (k')
# Format: ADME
Answer field: number only, no words.

Record excerpt, results attached:
                                   molecule  assay_value
0  OC[C@H]1O[C@@H](n2cnc3c(NC4CC5CCC4C5)ncnc32)[C@H](O)[C@@H]1O (stereo in doubt; 57)         2.63
1  C[C@@H](Nc1ncnc2c1ncn2[C@@H]1O[C@H](CO)[C@@H](O)[C@H]1O)[C@@H](O)c1ccccc1         1.32
2  C[C@H](CNc1ncnc2c1ncn2[C@@H]1O[C@H](CO)[C@@H](O)[C@H]1O)c1ccccc1            3

Please report k' for the following molecule: OC[C@H]1OC(n2cnc3c(NC4C5C[C@H]6C[C@@H](C5)C[C@@H]4C6)ncnc32)[C@H](O)[C@@H]1O (stereo partly drawn)
12.2

Look up and report measured k' for this entry: CC1(C)C2CCC(CNc3ncnc4c3ncn4C3O[C@H](CO)[C@@H](O)[C@H]3O)C1C2 (stereo partly drawn)
21

Please give measured k' of the following entry: "OC[C@H]1O[C@@H](n2cnc3c(NC4CCCCCC4)ncnc32)[C@H](O)[C@@H]1O"
4.04

Recall and state the measured k' for "OC[C@H]1O[C@@H](n2cnc3c(N[C@@H]4C[C@H]4c4ccccc4)ncnc32)[C@H](O)[C@@H]1O" .
2.43

Supply k' value. Item: "NNc1ncnc2c1ncn2[C@@H]1O[C@H](CO)[C@@H](O)[C@H]1O"
0.14

Hello, please tell me recorded k' for this one: NCCNc1ncnc2c1ncn2C1O[C@H](CO)[C@@H](O)[C@H]1O (stereo partly drawn)
0.11

====

# assay.remarks: Ionisation constant (pKa)
# Type: physicochemical
pKa values, listed per item
Provide a numeric answer; units are not to be included.

                                   molecule  measurement_kind  assay_value
0  OC[C@H]1O[C@@H](n2cnc3c(NCCc4ccccc4)ncnc32)[C@H](O)[C@@H]1O               pKa          3.6
1  CC[C@@H](C)Nc1ncnc2c1ncn2[C@@H]1O[C@H](CO)[C@@H](O)[C@H]1O               pKa          3.7
2  C[C@@H](Nc1ncnc2c1ncn2[C@@H]1O[C@H](CO)[C@@H](O)[C@H]1O)c1ccccc1               pKa          3.3
3  CCC(CC)Nc1ncnc2c1ncn2C1O[C@H](CO)[C@@H](O)[C@H]1O (stereo not given in full)               pKa          3.3

# evaluate next
Kindly indicate its recorded pKa. Item: C[C@H](Cc1ccccc1)Nc1ncnc2c1ncn2[C@@H]1O[C@H](CO)[C@@H](O)[C@H]1O [(R)-PIA]
3.4

====

# assay.remarks: HPLC capacity factor (k')
# Type: ADME
Param label: returns fulfilled when k' < 2, returns not fulfilled otherwise, including exact equality.

In [3]: df
Out[3]:
                                   compound          group
0  OC[C@H]1O[C@@H](n2cnc3c(NC4CCCC4)ncnc32)[C@H](O)[C@@H]1O      fulfilled
1  C[C@@H](CNc1ncnc2c1ncn2[C@@H]1O[C@H](CO)[C@@H](O)[C@H]1O)c1ccccc1  not fulfilled

Is the reported k' for "OC[C@H]1O[C@@H](n2cnc3c(N[C@H]4C[C@@H]4c4ccccc4)ncnc32)[C@H](O)[C@@H]1O" strictly below 2?
not fulfilled

Decide: k' of CCCCCC(C)Nc1ncnc2c1ncn2C1O[C@H](CO)[C@@H](O)[C@H]1O (stereo partly drawn) strictly below 2?
not fulfilled

Does the reported k' of the following compound sit strictly below 2? OC[C@H]1OC(n2cnc3c(NC45C[C@H]6C[C@@H](C4)C[C@@H](C5)C6)ncnc32)[C@H](O)[C@@H]1O (stereo partly drawn)
not fulfilled

Given the entry CC(CC1CCCCC1)Nc1ncnc2c1ncn2C1O[C@H](CO)[C@@H](O)[C@H]1O (stereo partly drawn) , would its reported k' be below 2?
not fulfilled

I'd appreciate it if you could check whether "C[C@@H](Nc1ncnc2c1ncn2[C@@H]1O[C@H](CO)[C@@H](O)[C@H]1O)[C@H](O)c1ccccc1" has k' smaller than 2.
fulfilled

Report whether reported k' is lower than 2 (strictly) for CC(C)(CCc1ccccc1)Nc1ncnc2c1ncn2C1O[C@H](CO)[C@@H](O)[C@H]1O (stereo partly drawn)
not fulfilled

Does "OC[C@H]1O[C@@H](n2cnc3c(NC4CC4)ncnc32)[C@H](O)[C@@H]1O" have k' strictly under 2?
fulfilled

Is k' of "CC(C)Nc1ncnc2c1ncn2[C@@H]1O[C@H](CO)[C@@H](O)[C@H]1O" strictly below 2?
fulfilled

k' strictly < 2 for this compound? CCC(CC)Nc1ncnc2c1ncn2C1O[C@H](CO)[C@@H](O)[C@H]1O (stereo partly drawn)
fulfilled

# TODO verify k' < 2 strictly for this compound: OCCNc1ncnc2c1ncn2C1O[C@H](CO)[C@@H](O)[C@H]1O (stereo partly drawn)
fulfilled

State whether 2 exceeds k' recorded for "C[C@H](CCc1ccccc1)Nc1ncnc2c1ncn2[C@@H]1O[C@H](CO)[C@@H](O)[C@H]1O" .
not fulfilled

Lab log: compare recorded k' with 2; is it strictly lower for CC(C)C(Nc1ncnc2c1ncn2C1O[C@H](CO)[C@@H](O)[C@H]1O)C(C)C (stereo partly drawn) ?
fulfilled

Determine if "OC[C@H]1O[C@@H](n2cnc3c(NC4CCCCCCC4)ncnc32)[C@H](O)[C@@H]1O" shows k' strictly lower than 2.
not fulfilled

Report whether reported k' is lower than 2 (strictly) for OC[C@H]1OC(n2cnc3c(NCC4CCCCC4)ncnc32)[C@H](O)[C@@H]1O (stereo partly drawn)
not fulfilled

Field: below-cutoff. Rule: recorded k' strictly less than 2. Subject: C[C@@H](Cc1ccccc1)Nc1ncnc2c1ncn2[C@@H]1OC(CO)[C@@H](O)[C@H]1O (single isomer, unassigned)
not fulfilled

k' strictly < 2 for this compound? CCC(C)(C)Nc1ncnc2c1ncn2C1O[C@H](CO)[C@@H](O)[C@H]1O (stereo partly drawn)
not fulfilled
